experiment: Half life in rat whole blood; type: ADME, tissue-based
Measure name: half-life

INSERT INTO assay_data (input_smiles, measure_name, meas_value) VALUES
  ('CC1(C)NC(=O)[C@H](CCCCCC(=O)[C@H]2CO2)NC(=O)[C@H]2CCCN2C(=O)[C@H](Cc2ccccc2)NC1=O', 'half-life', '0.68 to 3.6 min');

----------
assay: Half life in freshly prepared rat serum; format: ADME, cell-free
Measure name: half-life (min)

INSERT INTO results (input_smiles, units_of_measure, meas_value) VALUES
  ('CC1(C)NC(=O)[C@H](CCCCCC(=O)[C@H]2CO2)NC(=O)[C@H]2CCCN2C(=O)[C@H](Cc2ccccc2)NC1=O', 'min', 8.7);
